Would you kindly list IC50 for each of these compounds?
target: CETP (Homo sapiens); construct: The donor lipoprotein obtained above was added to plasma of healthy subject; test: Inhibitory effect in vitro on CETP activity in total plasma; settings: plasma of healthy subject with [3H]CE-HDL3, 37° C., 4 hr; average values
Sequence (P11597 18-493): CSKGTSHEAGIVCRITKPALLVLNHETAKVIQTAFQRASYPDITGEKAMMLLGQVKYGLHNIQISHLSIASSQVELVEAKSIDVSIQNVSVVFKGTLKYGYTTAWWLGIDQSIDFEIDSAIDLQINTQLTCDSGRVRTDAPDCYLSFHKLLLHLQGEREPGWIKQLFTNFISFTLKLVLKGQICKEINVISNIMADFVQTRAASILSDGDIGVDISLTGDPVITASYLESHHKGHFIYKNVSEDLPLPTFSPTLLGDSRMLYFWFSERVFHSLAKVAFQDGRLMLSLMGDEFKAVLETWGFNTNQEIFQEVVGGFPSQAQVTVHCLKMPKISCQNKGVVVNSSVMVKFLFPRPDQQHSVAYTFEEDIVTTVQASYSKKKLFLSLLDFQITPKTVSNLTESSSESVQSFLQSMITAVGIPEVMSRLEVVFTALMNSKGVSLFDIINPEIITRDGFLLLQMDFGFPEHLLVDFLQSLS
Where a name gives a salt, the structure may show the parent alone.
Give bare numbers, in nM.

>  <Compound>
CCN(C[C@H]1CC[C@H](C(=O)O)CC1)c1cc2c(cc1CN(Cc1cc(C(F)(F)F)cc(C(F)(F)F)c1)c1ncn(C)n1)CCCC2 [Example 69, hydrochloride]

>  <Unit Name>
nM

>  <Observed Measurement>
340

$$$$

I would be grateful if you could provide IC50 for each of the following entries.
1. CCN(C[C@H]1CC[C@H](CC(N)=O)CC1)c1cc2c(cc1CN(Cc1cc(C(F)(F)F)cc(C(F)(F)F)c1)c1nnn(C)n1)OC(F)(F)C(F)(F)O2 [Example 138, hydrochloride]
2. CCN(CCCCC(=O)OC)c1cc2c(cc1CN(Cc1cc(C#N)cc(C(F)(F)F)c1)c1ncn(C)n1)CCCC2 [Example 75, hydrochloride]

160
410

I would be grateful if you could provide IC50 for each of the following entries.
1. CCN(CCCCC(=O)O)c1cc2c(cc1CN(Cc1cc(C#N)cc(C(F)(F)F)c1)c1nnn(C)n1)CCC2.Cl [Example 39, hydrochloride]
2. CCN(CCCCC(=O)O)c1cc2c(cc1CN(Cc1cc(C#N)cc(C(F)(F)F)c1)c1ccn(C)n1)CCCC2 [Example 66, hydrochloride]
3. CCN(CCCCC(=O)O)c1cc2c(cc1CN(Cc1cc(C#N)cc(C(F)(F)F)c1)c1ncn(C)n1)CCCC2 [Example 77, hydrochloride]
4. CCN(CC1CCCC1)c1ccc(C(F)(F)F)cc1CN(Cc1cc(C(F)(F)F)cc(C(F)(F)F)c1)c1nnn(C)n1 [Example 33, hydrochloride]
5. CCN(CC1CCCC1)c1cc2c(cc1CN(Cc1cc(C(F)(F)F)cc(C(F)(F)F)c1)c1nnn(CCO)n1)CCC2 [Example 73, hydrochloride]
6. CCN(CCCCC(=O)OC)c1cc2c(cc1CN(Cc1cc(C#N)cc(C(F)(F)F)c1)c1ccn(C)n1)CCC2 [Example 55, hydrochloride]
7. CCN(CCCCC(=O)OC)c1cc2c(cc1CN(Cc1cc(C(F)(F)F)cc(C(F)(F)F)c1)c1nnn(C)n1)CCC2.Cl [Example 35, hydrochloride]
8. CCN(C[C@H]1CC[C@H](CC(=O)O)CC1)c1ccc(OC(F)(F)F)cc1CN(Cc1cc(C(F)(F)F)cc(C(F)(F)F)c1)c1nnn(C)n1.Cl [Example 115, hydrochloride]

1. 880
2. 870
3. 540
4. 560
5. 190
6. 770
7. 350
8. 90

Please fill in: IC50 reported for CCN(CCC(C)(C)CC(=O)O)c1ccc(C(F)(F)F)cc1CN(Cc1cc(C(F)(F)F)cc(C(F)(F)F)c1)c1nnn(C)n1 [Example 105, hydrochloride] = 600

Entry source: patent US7807701B2
